# ASSAY NAME: Pharmacokinetic study after intravenous administration
# Format: in vivo
# CONDITION DESCRIPTION: rat, plasma; intravenous 10 mg/Kg, male Wistar rats; read-out: β (elimination rate constant) (converted)
# Protocol: Male and female Wistar rats weighting 250 ± 10 g were used. They were housed in animal center of author’s institute. Each rat was housed in a cage which was kept at 25 ± 1 °C temperature and controlled humidity with 12 h light/dark cycle. Animals were fasted overnight before the experiment and had free access to water. The study protocol was approved by the local ethics committee for animal experiments of Shahid Beheshti University of Medical Sciences (Tehran, Iran). […]
MEASURE NAME: k el (s⁻¹)
Lab book: enter the figure in s⁻¹, no units written.

k el for CS(=O)(=O)c1ccc(-c2cc(C(=O)O)c3cccc(C(=O)c4ccccc4)c3n2)cc1 [AZGH 102] is 8.06e-05
